protocol_details: NCI Yeast Anticancer Drug Screen. Data for the mec2-1 strain (AID 157)
condition_summary: S. cerevisiae mec2-1 strain, at 50.0 µM
The panel holds about 79,000 compounds, 15% with a hit somewhere; the sample as a whole holds those more often. Calls of active or inactive are those of the source. No stated cut-off is given here; in the data, active means growth inhibition above about 70%; inactive means the rest.
Outcome codes: yes (1) for active, no (0) for inactive

smiles_repr | class_name
CC(=O)c1sc(Nc2nnc(-c3ccc(-c4nnc(Nc5nc(C)c(C(C)=O)s5)o4)cc3)o2)nc1C | no (0)
CC(=O)NNc1nc(C)c(C(/C=C/c2ccc(Cl)cc2)=N\NS(=O)(=O)c2ccc(C)cc2)s1 | no (0)
CC1(C)OC(=O)C(=Cc2cccc3ccc4ccccc4c23)C(=O)O1 | no (0)
COc1ccc(C/C=N/Nc2ccc([N+](=O)[O-])cc2[N+](=O)[O-])cc1OC | no (0)
O=[N+]([O-])c1ccc(F)c(Cl)c1F | no (0)
CCCCCCCCCCCCCCCCO | no (0)
Clc1ccc(C2=NCCO2)cc1 | no (0)
Cc1noc(N)c1Sc1ccc(Br)cc1 | yes (1)
